# Subject Of Test: furin, P09958
# Sequence (P09958 whole entry): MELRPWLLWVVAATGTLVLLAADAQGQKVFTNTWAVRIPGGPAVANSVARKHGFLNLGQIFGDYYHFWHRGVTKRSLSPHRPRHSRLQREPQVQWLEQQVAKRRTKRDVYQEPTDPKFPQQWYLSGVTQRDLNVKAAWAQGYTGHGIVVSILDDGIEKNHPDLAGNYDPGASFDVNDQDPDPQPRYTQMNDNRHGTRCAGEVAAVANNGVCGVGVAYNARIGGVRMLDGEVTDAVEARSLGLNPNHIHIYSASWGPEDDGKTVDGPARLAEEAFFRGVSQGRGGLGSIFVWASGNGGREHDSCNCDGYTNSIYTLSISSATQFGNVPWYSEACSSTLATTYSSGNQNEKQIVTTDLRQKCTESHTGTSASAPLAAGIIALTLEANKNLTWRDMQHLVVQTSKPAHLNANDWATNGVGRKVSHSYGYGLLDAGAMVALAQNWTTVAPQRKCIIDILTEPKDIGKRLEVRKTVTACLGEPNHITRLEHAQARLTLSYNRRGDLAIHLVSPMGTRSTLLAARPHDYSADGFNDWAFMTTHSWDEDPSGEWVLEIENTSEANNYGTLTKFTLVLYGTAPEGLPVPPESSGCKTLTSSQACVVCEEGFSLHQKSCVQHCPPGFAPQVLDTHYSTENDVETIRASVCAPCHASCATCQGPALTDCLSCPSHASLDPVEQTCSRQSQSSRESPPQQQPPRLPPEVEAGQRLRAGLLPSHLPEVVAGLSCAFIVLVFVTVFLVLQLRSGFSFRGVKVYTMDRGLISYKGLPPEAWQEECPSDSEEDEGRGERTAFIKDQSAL
# Protocol Notes: furin cleavage Z-score vs untreated control; higher = more cleavage, active = 3.5 or more, inactive = 1 or less, 8 variable residues between constant flanks;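 also: purified furin at 1:10 enzyme:substrate in 50 mM HEPES pH 7.5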
# Measurement Parameters: 7.5 min
This is one part of the list. The hit rate among all sequences tested is not known here.
Observed Property: furin cleavage Z-score
Please give the numeric answer without any surrounding text.

The following sequences have reported results that may help.
| Residues | furin cleavage Z-score |
| --- | --- |
| CAASPKGPVIAGNASASA [HC706] | 0.401 |
| CARRARDMSSAGNASASA [FS-1771] | 2.38 |
| CAGIQYLAGLAGNASASA [HC1046] | 0.778 |

Record request: furin cleavage Z-score value, item CASTPCSASLAGNASASA [HC2557]
0.819
